- TARGET_UNDER_TEST: T1, ScPif1 (Saccharomyces cerevisiae, UniProt P07271 236-753)
- T1 sequence: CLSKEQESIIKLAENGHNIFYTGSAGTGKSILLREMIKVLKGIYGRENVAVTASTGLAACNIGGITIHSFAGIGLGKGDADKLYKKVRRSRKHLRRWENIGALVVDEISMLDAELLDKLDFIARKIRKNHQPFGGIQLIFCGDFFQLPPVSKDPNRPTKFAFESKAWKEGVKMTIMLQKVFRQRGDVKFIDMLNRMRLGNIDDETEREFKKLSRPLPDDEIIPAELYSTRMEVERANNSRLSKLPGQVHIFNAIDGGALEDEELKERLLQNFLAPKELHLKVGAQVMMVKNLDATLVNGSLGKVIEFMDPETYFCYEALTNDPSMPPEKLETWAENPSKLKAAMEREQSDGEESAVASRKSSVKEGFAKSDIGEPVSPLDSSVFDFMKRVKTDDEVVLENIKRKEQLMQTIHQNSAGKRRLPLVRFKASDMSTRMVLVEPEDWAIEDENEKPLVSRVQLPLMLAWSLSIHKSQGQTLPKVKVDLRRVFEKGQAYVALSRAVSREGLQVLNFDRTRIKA
- TEST_DESCRIPTION: fluorescence anisotropy; no nucleotide; Fluorescence anisotropy: 20 mM HEPES-NaOH pH 7.5, 100 mM NaCl, 10% glycerol, 20 C, 10 nM FAM-DNA, 30 min, quadratic fit
- TEST_PARAMETERS: protein: recombinant; tags: N-terminal SUMO tag (Ni-NTA purified), cleaved by Ulp protease; label: 3' 6-FAM; parallel intramolecular G4
EXPERIMENTAL_READOUT: pKd
Here pKd is given on a logarithmic scale as minus log10 of the concentration in mol/L.

Given the binder TGGTGGTGGTTGTTGTGGTGGTGGTGGT (structured_DNA) [AT11-FAM] , what is its reported pKd?
7.95
